Values were extracted from ChEMBL document CHEMBL4041475.

test: Cytotoxicity against mouse RAW cells assessed as reduction in cell viability after 24 hrs by MTT assay; format: cell-based
MEASUREMENT TYPE: CC50 at 24 h (µM)
// return numeric value only (unit: µM, not printed)

* O=C(Cn1ccnc1/N=N/c1ccc([N+](=O)[O-])cc1)N1CCCCC1 | 206

Shifting focus to the molecule that follows.
Recorded CC50 at 24 h for O=C(Cn1ccnc1/N=N/c1ccc(C(F)(F)F)cc1)N1CCCCC1 , please?
415
